Hey, just so you know, these numbers are from ChEMBL document CHEMBL3228019.

// reported MIC per item
test system: Escherichia coli; assay: Antibacterial activity against Escherichia coli 21218 expressing aminoglycoside-6'-acetyltransferase assessed as growth inhibition measured after overnight incubation by two-fold broth dilution method; format: functional
Record the value in µg/mL, omitting the unit from your answer.

Known MIC results, listed for orientation:
COMPOUND: CNC[C@H]1O[C@H](O[C@H]2[C@H](O)[C@@H](O[C@H]3O[C@H](CO)[C@@H](O)[C@H](NC)[C@H]3O)[C@H](N)C[C@@H]2N)[C@H](N)[C@@H](O)[C@@H]1O
MIC / µg/mL: 63

COMPOUND: NC[C@H]1O[C@H](O[C@H]2[C@H](O)[C@@H](O[C@H]3O[C@H](CO)[C@@H](O)[C@H](N)[C@H]3O)[C@H](N)C[C@@H]2N)[C@H](N)[C@@H](O)[C@@H]1O [BEKANAMYCIN]
MIC / µg/mL: 32

COMPOUND: N[C@@H]1C[C@H](N)[C@@H](O[C@H]2O[C@@H]3CNC(=O)O[C@H]3[C@H](O)[C@H]2O)[C@H](O)[C@H]1O[C@H]1O[C@H](CO)[C@@H](O)[C@@H]2NC(=O)O[C@@H]12
MIC / µg/mL: 63

input: Looking for the measured MIC of CNC[C@H]1O[C@H](O[C@H]2[C@H](O)[C@@H](O[C@H]3O[C@H](CO)[C@@H](O)[C@H](NC)[C@H]3O)[C@H](N)C[C@@H]2N)[C@H](O)[C@@H](O)[C@@H]1O , can you help?
output: 125

---

Reported MIC by item:
tested on: Pseudomonas aeruginosa; assay: Antibacterial activity against Pseudomonas aeruginosa 20653 expressing aminoglycoside-3'-phosphotransferase-4 assessed as growth inhibition measured after overnight incubation by two-fold broth dilution method; format: functional

CPD SMILES: CNC[C@H]1O[C@H](O[C@H]2[C@H](O)[C@@H](O[C@H]3O[C@H](CO)[C@@H](O)[C@H](NC)[C@H]3O)[C@H](N)C[C@@H]2N)[C@H](N)[C@@H](O)[C@@H]1O
MEASUREMENT TARGET: Pseudomonas aeruginosa
ASSAY VALUE: 8 µg/mL

CPD SMILES: NC[C@H]1O[C@H](O[C@H]2[C@H](O)[C@@H](O[C@H]3O[C@H](CO)[C@@H](O)[C@H](N)[C@H]3O)[C@H](N)C[C@@H]2N)[C@H](N)[C@@H](O)[C@@H]1O
MEASUREMENT TARGET: Pseudomonas aeruginosa
ASSAY VALUE: > 125 µg/mL

CPD SMILES: CCNC[C@H]1O[C@H](O[C@H]2[C@H](O)[C@@H](O[C@H]3O[C@H](CO)[C@@H](O)[C@H](NCC)[C@H]3O)[C@H](N)C[C@@H]2N)[C@H](O)[C@@H](O)[C@@H]1O
MEASUREMENT TARGET: Pseudomonas aeruginosa
ASSAY VALUE: > 125 µg/mL

CPD SMILES: CNC[C@H]1O[C@H](O[C@H]2[C@H](O)[C@@H](O[C@H]3O[C@H](CO)[C@@H](O)[C@H](NC)[C@H]3O)[C@H](N)C[C@@H]2N)[C@H](O)[C@@H](O)[C@@H]1O
MEASUREMENT TARGET: Pseudomonas aeruginosa
ASSAY VALUE: > 125 µg/mL

CPD SMILES: NC[C@@H]1O[C@@H](O[C@H]2[C@H](O)[C@@H](O[C@H]3O[C@H](CO)[C@@H](O)[C@H](N)[C@H]3O)[C@H](N)C[C@@H]2N)[C@@H](O)[C@H](O)[C@H]1O
MEASUREMENT TARGET: Pseudomonas aeruginosa
ASSAY VALUE: > 125 µg/mL

Now look at this one.
input: Requested read-out: MIC. Entry: N[C@@H]1C[C@H](N)[C@@H](O[C@H]2O[C@@H]3CNC(=O)O[C@H]3[C@H](O)[C@H]2O)[C@H](O)[C@H]1O[C@H]1O[C@H](CO)[C@@H](O)[C@@H]2NC(=O)O[C@@H]12
output: 32 µg/mL
